Each entry below lists one item and its recorded inhibition at 1.25 µM value.
SUBJECT_OF_TEST: mUSP18 (Mus musculus)
Construct: (46-368); His-tag (N); made in house
Sequence (Q9WTV6 46-368): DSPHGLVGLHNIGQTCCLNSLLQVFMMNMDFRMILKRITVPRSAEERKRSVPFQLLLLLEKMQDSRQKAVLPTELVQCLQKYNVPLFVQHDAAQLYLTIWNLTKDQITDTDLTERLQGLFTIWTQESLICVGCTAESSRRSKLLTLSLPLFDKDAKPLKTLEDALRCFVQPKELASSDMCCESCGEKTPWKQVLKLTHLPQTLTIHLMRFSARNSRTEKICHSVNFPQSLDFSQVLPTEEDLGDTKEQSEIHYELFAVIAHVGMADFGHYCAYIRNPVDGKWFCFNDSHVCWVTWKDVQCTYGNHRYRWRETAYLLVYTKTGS
ASSAY_TEXT: High-throughput screening, ISG15ct-RhoMP, single dose 1.25 µM
Type: biochemical, murine
SETTINGS: mUSP18 %inhibition; carboxylic acid (CA) building block alone; read-out: %inh CA only
READOUT_LABEL: inhibition at 1.25 µM (%)

{"MOLECULE": "O=C(O)c1ccnn1C1CCOCC1 [CA216]", "MEASURE_UNIT": "%", "MEASURED_RESULT": 6.01}
{"MOLECULE": "O=C(O)Cc1ccc(S(=O)(=O)N2CCOCC2)s1 [CA149]", "MEASURE_UNIT": "%", "MEASURED_RESULT": 9.87}
{"MOLECULE": "O=C(O)C1CC2CCC1O2 (centres unmarked) [CA356]", "MEASURE_UNIT": "%", "MEASURED_RESULT": 3.97}
{"MOLECULE": "Cc1ccc(CN2C(=O)CCC2C(=O)O)cc1 (centres unmarked) [CA337]", "MEASURE_UNIT": "%", "MEASURED_RESULT": -0.24}
{"MOLECULE": "CN(Cc1cccnc1)S(=O)(=O)c1cc(C(=O)O)n(C)c1 [CA203]", "MEASURE_UNIT": "%", "MEASURED_RESULT": 0.22}
{"MOLECULE": "O=C(O)C1CC=CCC1C(=O)N1CCOCC1 (centres unmarked) [CA359]", "MEASURE_UNIT": "%", "MEASURED_RESULT": 4.09}
{"MOLECULE": "Cc1nc(-c2ccsc2)ccc1C(=O)O [CA378]", "MEASURE_UNIT": "%", "MEASURED_RESULT": 1.59}
{"MOLECULE": "O=C(O)c1cccnc1-n1cncn1 [CA375]", "MEASURE_UNIT": "%", "MEASURED_RESULT": -1.76}
{"MOLECULE": "COc1ccc(CC(=O)O)cc1S(=O)(=O)N1CCOCC1 [CA340]", "MEASURE_UNIT": "%", "MEASURED_RESULT": 3.33}
{"MOLECULE": "Cc1n[nH]c(C)c1Cc1ccc(C(=O)O)o1 [CA445]", "MEASURE_UNIT": "%", "MEASURED_RESULT": -7.28}
{"MOLECULE": "Cc1cncc(C(=O)O)c1 [CA010]", "MEASURE_UNIT": "%", "MEASURED_RESULT": -2.59}
{"MOLECULE": "O=C(O)c1ccc(Cn2cncn2)cc1 [CA243]", "MEASURE_UNIT": "%", "MEASURED_RESULT": 6.44}
{"MOLECULE": "COc1ccc(C(=O)O)cc1S(=O)(=O)N1CCCCCC1 [CA217]", "MEASURE_UNIT": "%", "MEASURED_RESULT": 6.36}
{"MOLECULE": "COc1ccc(S(=O)(=O)N(CCC(=O)O)Cc2ccccc2)cc1 [CA424]", "MEASURE_UNIT": "%", "MEASURED_RESULT": 3.84}
{"MOLECULE": "O=C(O)C1COCCN1C(=O)OCc1ccccc1 (centres unmarked) [CA265]", "MEASURE_UNIT": "%", "MEASURED_RESULT": 7.65}
{"MOLECULE": "O=C(O)c1ccc(-c2ncon2)cc1 [CA461]", "MEASURE_UNIT": "%", "MEASURED_RESULT": -2.23}
{"MOLECULE": "O=C(O)Cc1ccn(-c2ccccc2)n1 [CA246]", "MEASURE_UNIT": "%", "MEASURED_RESULT": 4.69}
{"MOLECULE": "CC(C)(C)OC(=O)Nc1ccccc1C(=O)O [CA009]", "MEASURE_UNIT": "%", "MEASURED_RESULT": -1.43}
{"MOLECULE": "Cc1ccc(S(=O)(=O)N[C@@H](Cc2ccccc2)C(=O)O)cc1 [CA291]", "MEASURE_UNIT": "%", "MEASURED_RESULT": 3.32}
{"MOLECULE": "COc1ccc(OCc2cc(C)on2)c(C(=O)O)c1 [CA200]", "MEASURE_UNIT": "%", "MEASURED_RESULT": 0.4}
{"MOLECULE": "O=C(O)c1ccccc1OCc1ccncc1 [CA129]", "MEASURE_UNIT": "%", "MEASURED_RESULT": 8.78}
{"MOLECULE": "O=C(O)c1cc(S(=O)(=O)Nc2nccs2)ccc1F [CA403]", "MEASURE_UNIT": "%", "MEASURED_RESULT": 0.9}
{"MOLECULE": "O=C(O)CC(O)(c1nccn1Cc1ccccc1)C(F)(F)F (centres unmarked) [CA113]", "MEASURE_UNIT": "%", "MEASURED_RESULT": 9.19}
{"MOLECULE": "O=C(O)C(Cl)(Cl)Cl [CA073]", "MEASURE_UNIT": "%", "MEASURED_RESULT": 4.86}
{"MOLECULE": "O=C(O)c1cc(-n2ccnc2)ccn1 [CA106]", "MEASURE_UNIT": "%", "MEASURED_RESULT": 13.6}
{"MOLECULE": "O=C(O)c1occc1-c1ccccc1 [CA354]", "MEASURE_UNIT": "%", "MEASURED_RESULT": 10.9}
{"MOLECULE": "Cc1nn(-c2cccnc2)nc1C(=O)O [CA314]", "MEASURE_UNIT": "%", "MEASURED_RESULT": 5.77}
{"MOLECULE": "Cc1nc(COc2ccc(C(=O)O)cc2)no1 [CA276]", "MEASURE_UNIT": "%", "MEASURED_RESULT": 4.94}
{"MOLECULE": "Cc1oc(-c2ccco2)nc1CC(=O)O [CA128]", "MEASURE_UNIT": "%", "MEASURED_RESULT": 4.02}
{"MOLECULE": "O=C(O)c1csc(-c2cnccn2)n1 [CA142]", "MEASURE_UNIT": "%", "MEASURED_RESULT": 8.67}
{"MOLECULE": "O=C(O)CCc1cccnc1 [CA058]", "MEASURE_UNIT": "%", "MEASURED_RESULT": -2.47}
{"MOLECULE": "O=C(O)c1csc(CCc2ccccc2)n1 [CA382]", "MEASURE_UNIT": "%", "MEASURED_RESULT": -3.25}
{"MOLECULE": "O=C(O)C1CCCN(c2ncccc2C(F)(F)F)C1 (centres unmarked) [CA440]", "MEASURE_UNIT": "%", "MEASURED_RESULT": -5.84}
{"MOLECULE": "O=C(O)c1ncoc1-c1ccco1 [CA146]", "MEASURE_UNIT": "%", "MEASURED_RESULT": 8.58}
{"MOLECULE": "O=C(O)c1cc(Cl)nc(N2CCCC2)c1 [CA244]", "MEASURE_UNIT": "%", "MEASURED_RESULT": 9.03}
{"MOLECULE": "O=C(O)Cc1csc(C2CC2)n1 [CA455]", "MEASURE_UNIT": "%", "MEASURED_RESULT": 0.84}
{"MOLECULE": "Cn1ncc(C2CC2)c1C(=O)O [CA166]", "MEASURE_UNIT": "%", "MEASURED_RESULT": 10.9}
{"MOLECULE": "O=C(O)Cc1csc(N2CCCC2=O)n1 [CA388]", "MEASURE_UNIT": "%", "MEASURED_RESULT": -10.4}
{"MOLECULE": "CC1CCCCN1S(=O)(=O)c1ccccc1C(=O)O (centres unmarked) [CA468]", "MEASURE_UNIT": "%", "MEASURED_RESULT": -4.17}
{"MOLECULE": "O=C(O)c1ccc(Cn2ccccc2=O)o1 [CA448]", "MEASURE_UNIT": "%", "MEASURED_RESULT": 5.37}
{"MOLECULE": "O=C(O)c1ccc(Cn2cccn2)s1 [CA355]", "MEASURE_UNIT": "%", "MEASURED_RESULT": 7.41}
{"MOLECULE": "Cc1noc(C)c1S(=O)(=O)N1CCCC1C(=O)O (centres unmarked) [CA342]", "MEASURE_UNIT": "%", "MEASURED_RESULT": 2.95}
{"MOLECULE": "Cc1noc(C)c1S(=O)(=O)N1CCC(C(=O)O)CC1 [CA282]", "MEASURE_UNIT": "%", "MEASURED_RESULT": 10.4}
{"MOLECULE": "O=C(O)CC1=NN(c2ncc(C(F)(F)F)cc2Cl)C(=O)C1 [CA193]", "MEASURE_UNIT": "%", "MEASURED_RESULT": 5.93}
{"MOLECULE": "O=C(O)c1ccc(-c2ccccc2)o1 [CA250]", "MEASURE_UNIT": "%", "MEASURED_RESULT": 3.02}
{"MOLECULE": "O=Cc1cn(CC(=O)O)c2ccccc12 [CA036]", "MEASURE_UNIT": "%", "MEASURED_RESULT": -2.36}
{"MOLECULE": "O=C(O)c1ccc(COc2ccccc2Br)cc1 [CA207]", "MEASURE_UNIT": "%", "MEASURED_RESULT": -2.79}
{"MOLECULE": "CCc1ccc(C(=O)N2CCC(C(=O)O)CC2)o1 [CA376]", "MEASURE_UNIT": "%", "MEASURED_RESULT": 6.04}
{"MOLECULE": "Cc1cccc(COc2cccc(C(=O)O)c2)c1 [CA465]", "MEASURE_UNIT": "%", "MEASURED_RESULT": 2.43}
{"MOLECULE": "O=C(O)Cc1csc(-c2cnccn2)n1 [CA092]", "MEASURE_UNIT": "%", "MEASURED_RESULT": 15.3}
